# method description: The drug is tested on Z-016 corresponding to mouse gut metagenome with ENA study accession number: PRJEB37062 and ENA sample accession number: ERS12561815 for biotransformation under anaerobic condition. The drug concentrations were measured over 9 timepoints collected between 0 and 24 hours of incubation by liquid-chromatography-coupled mass spectrometry (LC–MS); note: call rule not given here
# stated conditions: 2 µM
result type: Bacterial Biotransformation

compound: CN(C)CCC=C1c2ccccc2COc2ccccc21 [DOXEPIN]
Bacterial Biotransformation: Compound NOT metabolized
//
compound: COc1ccc2cc([C@H](C)C(=O)O)ccc2c1
Bacterial Biotransformation: Compound NOT metabolized
//
compound: CC12CC3CC(C)(C1)CC(N)(C3)C2 [MEMANTINE]
Bacterial Biotransformation: Compound NOT metabolized
//
compound: CC(=O)O[C@H]1C(=O)[C@@]2(C)[C@H]([C@H](OC(=O)c3ccccc3)[C@]3(O)C[C@H](OC(=O)[C@H](O)[C@@H](NC(=O)c4ccccc4)c4ccccc4)C(C)=C1C3(C)C)[C@]1(OC(C)=O)CO[C@@H]1C[C@@H]2O
Bacterial Biotransformation: Compound metabolized
//
compound: CC(=O)SCC(Cc1ccccc1)C(=O)NCC(=O)OCc1ccccc1 (stereo not drawn)
Bacterial Biotransformation: Compound metabolized
//
compound: CN(C)CCOC(C)(c1ccccc1)c1ccccn1.O=C(O)CCC(=O)O (stereo not drawn) [DOXYLAMINE SUCCINATE]
Bacterial Biotransformation: Compound NOT metabolized
//
compound: Cc1ccc(NC(=O)c2ccc(CN3CCN(C)CC3)cc2)cc1Nc1nccc(-c2cccnc2)n1
Bacterial Biotransformation: Compound NOT metabolized
//
compound: Cc1cc(C)cc(OCC2CNC(=O)O2)c1 (stereo not drawn)
Bacterial Biotransformation: Compound NOT metabolized
//
compound: CCc1oc2ccccc2c1C(=O)c1cc(Br)c(O)c(Br)c1
Bacterial Biotransformation: Compound NOT metabolized
//
compound: CCCN(CCC)CCc1cccc2c1CC(=O)N2
Bacterial Biotransformation: Compound NOT metabolized

What value of Bacterial Biotransformation has been recorded for this entry: CN1CCC[C@@H]1CCO[C@](C)(c1ccccc1)c1ccc(Cl)cc1.O=C(O)/C=C/C(=O)O [CLEMASTINE FUMARATE]
Compound NOT metabolized

Quick check: Bacterial Biotransformation of `CC[C@H](C)C(=O)O[C@H]1CCC=C2C=C[C@H](C)[C@H](CC[C@@H]3C[C@@H](O)CC(=O)O3)[C@H]21` ?
Compound NOT metabolized

Endpoint output: Bacterial Biotransformation of `CN1CCC(OC(c2ccccc2)c2ccccc2)CC1` . Value?
Compound NOT metabolized

* * *

# stated conditions: human gut metagenome, 24 h, 2 µM
result type: Bacterial Biotransformation

// solved cases for Bacterial Biotransformation follow
molecule: COc1cc2nc(N3CCN(C(=O)C4CCCO4)CC3)nc(N)c2cc1OC (stereo not drawn) [TERAZOSIN]
Bacterial Biotransformation: Compound metabolized
//
molecule: O=C(O)CCC(=O)O.O=C(O[C@H]1CN2CCC1CC2)N1CCc2ccccc2[C@@H]1c1ccccc1 [SOLIFENACIN SUCCINATE]
Bacterial Biotransformation: Compound metabolized
//
molecule: COCCCC/C(=N\OCCN)c1ccc(C(F)(F)F)cc1.O=C(O)/C=C\C(=O)O [FLUVOXAMINE MALEATE]
Bacterial Biotransformation: Compound metabolized
//
molecule: CN(C)C(=O)Oc1cc(OC(=O)N(C)C)cc(C(O)CNC(C)(C)C)c1 (stereo not drawn) [BAMBUTEROL]
Bacterial Biotransformation: Compound metabolized
//
molecule: CCCN1C[C@H](CSC)C[C@@H]2c3cccc4[nH]cc(c34)C[C@H]21.CS(=O)(=O)O [PERGOLIDE MESYLATE]
Bacterial Biotransformation: Compound NOT metabolized

Which Bacterial Biotransformation is reported for this molecule? CC(=O)OCC(=O)[C@@]1(OC(C)=O)[C@@H](C)C[C@H]2[C@@H]3C[C@H](F)C4=CC(=O)C=C[C@]4(C)[C@@]3(F)[C@@H](O)C[C@@]21C [DIFLORASONE DIACETATE]
Compound metabolized

Field request: Bacterial Biotransformation | item: COc1ccc2c(c1)c(CC(=O)O)c(C)n2C(=O)c1ccc(Cl)cc1 [INDOMETHACIN]
Compound metabolized

Find the recorded Bacterial Biotransformation belonging to CC(=O)O[C@H]1C(=O)[C@@]2(C)[C@H]([C@H](OC(=O)c3ccccc3)[C@]3(O)C[C@H](OC(=O)[C@H](O)[C@@H](NC(=O)c4ccccc4)c4ccccc4)C(C)=C1C3(C)C)[C@]1(OC(C)=O)CO[C@@H]1C[C@@H]2O [PACLITAXEL] and report it.
Compound NOT metabolized

Param item = C=C[C@H]1CN2CC[C@H]1C[C@H]2[C@H](O)c1ccnc2ccc(OC)cc12.C=C[C@H]1CN2CC[C@H]1C[C@H]2[C@H](O)c1ccnc2ccc(OC)cc12.O.O.O=S(=O)(O)O [QUININE SULFATE] ; retrieve measured Bacterial Biotransformation.
Compound NOT metabolized

Tell me the measured Bacterial Biotransformation of C#C[C@]1(OC(C)=O)CC[C@H]2[C@@H]3CCC4=C[C@@H](OC(C)=O)CC[C@@H]4[C@H]3CC[C@@]21C [ETHYNODIOL DIACETATE] , please.
Compound metabolized

If you can, please state the reported Bacterial Biotransformation value of O=C(O)c1cc(/N=N/c2ccc(S(=O)(=O)Nc3ccccn3)cc2)ccc1O [SULFASALAZINE] .
Compound metabolized

Sample CC(N)C12CC3CC(CC(C3)C1)C2 (stereo not drawn) [RIMANTADINE] — what was its Bacterial Biotransformation?
Compound NOT metabolized

// query Bacterial Biotransformation value for entry Cc1nc(Nc2ncc(C(=O)Nc3c(C)cccc3Cl)s2)cc(N2CCN(CCO)CC2)n1 [DASATINIB ANHYDROUS]
Compound metabolized

* * *

# method description: The drug is tested on WLS-082 corresponding to human gut metagenome with ENA study accession number: PRJEB37062 and ENA sample accession number: ERS12561751 for biotransformation under anaerobic condition. The drug concentrations were measured over 9 timepoints collected between 0 and 24 hours of incubation by liquid-chromatography-coupled mass spectrometry (LC–MS)
# stated conditions: 2 µM
result type: Bacterial Biotransformation

compound: CN(C/C=C/C#CC(C)(C)C)Cc1cccc2ccccc12 [TERBINAFINE]
result: Compound NOT metabolized

compound: CCN(CC)CCOC(=O)C1(C2CCCCC2)CCCCC1 [DICYCLOMINE]
result: Compound metabolized

compound: CC(=O)Nc1ccc(OC(C)=O)cc1 [DIACETAMATE]
result: Compound metabolized

compound: O=C1C(CC[S+]([O-])c2ccccc2)C(=O)N(c2ccccc2)N1c1ccccc1 (configuration not stated) [SULFINPYRAZONE]
result: Compound metabolized

Now look at this one.
Entry C=CC[C@@H]1/C=C(\C)C[C@H](C)C[C@H](OC)[C@H]2O[C@@](O)(C(=O)C(=O)N3CCCC[C@H]3C(=O)O[C@H](/C(C)=C/[C@@H]3CC[C@@H](O)[C@H](OC)C3)[C@H](C)[C@@H](O)CC1=O)[C@H](C)C[C@@H]2OC.O [TACROLIMUS] : reported Bacterial Biotransformation = ?
Compound metabolized

* * *

# method description: The drug is tested on Z-018 corresponding to pig gut metagenome with ENA study accession number: PRJEB37062 and ENA sample accession number: ERS12561817 for biotransformation under anaerobic condition. The drug concentrations were measured over 9 timepoints collected between 0 and 24 hours of incubation by liquid-chromatography-coupled mass spectrometry (LC–MS)
# stated conditions: 2 µM
result type: Bacterial Biotransformation

# example entries with known answers
compound: O=C(CCCN1CCC2(CC1)C(=O)NCN2c1ccccc1)c1ccc(F)cc1
Bacterial Biotransformation: Compound NOT metabolized
--
compound: CN1CCC(=C2c3ccccc3CC(=O)c3sccc32)CC1.O=C(O)/C=C/C(=O)O [KETOTIFEN FUMARATE]
Bacterial Biotransformation: Compound NOT metabolized
--
compound: CN(C)CCOC(C)(c1ccccc1)c1ccccn1.O=C(O)CCC(=O)O (stereo not given) [DOXYLAMINE SUCCINATE]
Bacterial Biotransformation: Compound NOT metabolized
--
compound: CN(C)C(=O)Oc1cc(OC(=O)N(C)C)cc(C(O)CNC(C)(C)C)c1 (stereo not given)
Bacterial Biotransformation: Compound NOT metabolized
--
compound: CC1Cc2ccccc2N1NC(=O)c1ccc(Cl)c(S(N)(=O)=O)c1 (stereo not given) [INDAPAMIDE]
Bacterial Biotransformation: Compound NOT metabolized
--
compound: CCN(CC)C(=O)C1(c2ccccc2)CC1CN (stereo not given)
Bacterial Biotransformation: Compound NOT metabolized

Fill in the blank: the reported Bacterial Biotransformation of Cc1ccccc1C(OCCN(C)C)c1ccccc1.O=C(O)CC(O)(CC(=O)O)C(=O)O (stereo not given) [ORPHENADRINE CITRATE] is ____.
Compound metabolized

* * *

# stated conditions: human gut metagenome, 24 h, 2 µM
result type: Bacterial Biotransformation

Please review the following examples before continuing.
molecule: CCCC(C)(COC(N)=O)COC(=O)NC(C)C (stereo not given)
result: Compound metabolized
//
molecule: C[C@]12CCC(=O)C=C1[C@@H]1C[C@@H]1[C@H]1[C@@H]3[C@@H]4C[C@@H]4[C@@]4(CCC(=O)O4)[C@@]3(C)CC[C@@H]12
result: Compound metabolized
//
molecule: CN[C@H]1CC[C@@H](c2ccc(Cl)c(Cl)c2)c2ccccc21
result: Compound NOT metabolized
//
molecule: CC(C)[C@H]1CC[C@H](C(=O)N[C@H](Cc2ccccc2)C(=O)O)CC1 [NATEGLINIDE]
result: Compound metabolized

Now consider a different molecule.
# input molecule: `CCCN(CCC)CCc1cccc2c1CC(=O)N2` ; wanted: its Bacterial Biotransformation
Compound NOT metabolized
